As shown below, each of these compounds has a reported GRK5 fold (increase in potency relative to paroxetine) value.
biological target: GRK5 (Bos taurus, UniProt P43249); construct: when using full-length kinases as the receptor[37] instead of isolated kinase domains; made in house; experiment: In vitro phosphorylation assay (tubulin, 5 μM ATP), GRK5; type: biochemical, bovine; conditions: relative to paroxetine
Sequence (P43249 whole entry, the tested form may be a part): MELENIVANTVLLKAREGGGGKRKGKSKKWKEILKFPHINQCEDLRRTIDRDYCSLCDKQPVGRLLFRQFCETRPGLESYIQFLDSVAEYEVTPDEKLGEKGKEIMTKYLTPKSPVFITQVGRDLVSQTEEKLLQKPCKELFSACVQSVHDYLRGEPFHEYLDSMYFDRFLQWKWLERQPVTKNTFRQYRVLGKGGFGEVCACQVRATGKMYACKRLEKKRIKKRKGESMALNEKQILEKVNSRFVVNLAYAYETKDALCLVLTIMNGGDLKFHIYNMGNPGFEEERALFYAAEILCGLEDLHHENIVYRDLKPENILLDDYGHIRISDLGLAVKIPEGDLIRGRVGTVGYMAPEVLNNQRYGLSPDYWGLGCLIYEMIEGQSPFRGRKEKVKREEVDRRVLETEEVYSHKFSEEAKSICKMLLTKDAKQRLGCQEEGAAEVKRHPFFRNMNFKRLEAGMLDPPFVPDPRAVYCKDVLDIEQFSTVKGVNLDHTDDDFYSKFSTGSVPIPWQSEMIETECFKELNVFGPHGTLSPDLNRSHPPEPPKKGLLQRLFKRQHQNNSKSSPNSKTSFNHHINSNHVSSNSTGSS
Respond numerically; units are fold and should not be typed.

# example entries with known answers
CC1=C(C(=O)Nc2ccc3[nH]ncc3c2)C(c2ccc(Cl)c(Cl)c2)CC(=O)N1 (stereo not shown) [GSK299115A]: 1.6
COc1cc2c(cc1Nc1nc(Nc3ccsc3C(N)=O)c3cc[nH]c3n1)N(C(=O)CN(C)C)CCC2 [GSK2110236A]: 40
CNC(=O)c1ncccc1Nc1nc(Nc2cc3c(cc2OC)CCCN3C(=O)CN(C)C)nc2[nH]ccc12 [GSK2220400A]: 20

Please examine the following record next.
Value of measured GRK5 fold (increase in potency relative to paroxetine) for the entry CCn1c(-c2nonc2N)nc2c(C#CC(C)(C)O)nc(O[C@@H](CN)c3ccccc3)cc21 [GSK1007102B] : 40
